Target: α-1b adrenoreceptor (Mesocricetus auratus)
Sequence (P18841 whole entry): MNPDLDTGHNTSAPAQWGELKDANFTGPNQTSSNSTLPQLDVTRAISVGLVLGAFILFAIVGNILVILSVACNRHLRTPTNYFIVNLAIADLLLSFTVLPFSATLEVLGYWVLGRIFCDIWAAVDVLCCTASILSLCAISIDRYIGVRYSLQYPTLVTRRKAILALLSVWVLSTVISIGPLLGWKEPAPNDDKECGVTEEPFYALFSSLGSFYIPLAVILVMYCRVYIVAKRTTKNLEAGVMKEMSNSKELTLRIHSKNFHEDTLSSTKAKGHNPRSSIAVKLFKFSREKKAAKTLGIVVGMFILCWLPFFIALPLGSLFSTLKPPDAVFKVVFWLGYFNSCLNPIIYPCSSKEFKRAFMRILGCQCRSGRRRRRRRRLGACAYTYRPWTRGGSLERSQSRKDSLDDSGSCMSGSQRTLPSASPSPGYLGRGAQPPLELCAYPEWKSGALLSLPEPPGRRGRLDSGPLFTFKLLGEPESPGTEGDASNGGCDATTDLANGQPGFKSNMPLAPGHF
Experiment: biochemical
Type: binding, hamster
Details: [3H]-prazosin radioligand; cloned receptor in LTK cell membranes; read-out: Radioligand Binding (Ki, nM) 1b (Hamster)
Source text: The cDNA clones encoding the α-1 adrenoreceptors (α-1a, α-1b, and α-1d) were obtained from TULCO (Triangle Universities Licensing Consortium, Research Triangle Park, NC) and inserted into the eukaryotic expression vector SnaB30. In this vector, expression of the adrenoreceptor gene is under the transcriptional control of an SV40 early promoter. […] Stable G418-resistant parental lines were generated, with successful expression of adrenoreceptor protein monitored using radioligand binding techniques. […]
Structures can show the parent of a compound that is named as a salt.
Endpoint label: Ki (nM)
Give the value, in units of nM, as a plain number.

COc1cccc2c1[C@@H]1CN(CCCCn3c(=O)[nH]c4c(sc5ncc(-c6ccccc6)nc54)c3=O)C[C@H]1CO2 [Example 50, hydrochloride]    20.8
COc1cccc2c1[C@@H]1CCN(CCCCn3c(=O)[nH]c4c(sc5ccc(-c6ccccc6)nc54)c3=O)C[C@H]1CO2 [Example 101, dihydrochloride]    8.41

For the next question, use this molecule.
Task item: Which Ki is listed for COc1cc(O)cc2c1[C@@H]1CN(CCCCn3c(=O)[nH]c4c(sc5ncc(-c6ccccc6)nc54)c3=O)C[C@@H]1CO2 (relative stereo) ?
Reply: 266
